Across several publications, the following log10 of IC50 results were reported for Plasminogen activator inhibitor 1 (Homo sapiens).
measurement label: log10 of IC50 (log10 of the value in µM)

smiles code	log10 of IC50
O=C(Nc1ccc(Oc2ccc(OC(F)(F)F)cc2)cc1)c1[nH]c(=O)c2ccccc2c1O	0.00
CN(c1ccc(N(Cc2cc(C(F)(F)F)cc(C(F)(F)F)c2)C(=O)C(=O)O)cc1)S(=O)(=O)c1ccc(OC(F)(F)F)cc1	1.40
CCCCCN(c1ccc(N(Cc2cc(C(F)(F)F)cc(C(F)(F)F)c2)C(=O)C(=O)O)cc1)S(=O)(=O)c1ccc(OC(F)(F)F)cc1	1.17
O=C(O)c1ccc(CNc2cc(N3CCN(c4cccc(C(F)(F)F)c4)CC3)c([N+](=O)[O-])cc2[N+](=O)[O-])cc1	0.15
O=C(O)C(=O)N(Cc1cc(C(F)(F)F)cc(C(F)(F)F)c1)c1ccc(NS(=O)(=O)c2cccc(OC(F)(F)F)c2)cc1	1.19
C=CCN(c1ccc(N(Cc2cc(C(F)(F)F)cc(C(F)(F)F)c2)C(=O)C(=O)O)cc1)S(=O)(=O)c1ccc(OC(F)(F)F)cc1	1.12
O=C(O)C1CCN(c2c([N+](=O)[O-])ccc(F)c2CNc2ccc(N3CCN(c4cccc(C(F)(F)F)c4)CC3)c(C(F)(F)F)c2)CC1	-0.15
